Taken from patent US20250304677A1.

assay-target: T1, human folate receptor alpha expressed on cells (transfected HEK293T, HeLa, MCF7, MDA-MB-231) (human, UniProt P15328 25-234)
T1 construct: HEK293T transiently transfected with human FOLR1; also called native human FRα; cell-expressed human FOLR1
T1 sequence (P15328 25-234 limits assumed): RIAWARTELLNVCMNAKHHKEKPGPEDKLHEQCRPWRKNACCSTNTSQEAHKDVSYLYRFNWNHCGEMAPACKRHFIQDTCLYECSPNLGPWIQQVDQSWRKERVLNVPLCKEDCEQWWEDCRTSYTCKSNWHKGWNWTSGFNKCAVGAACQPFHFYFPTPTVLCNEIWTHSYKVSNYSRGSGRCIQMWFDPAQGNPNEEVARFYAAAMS
run-description: flow cytometry on HEK293T cells overexpressing human FOLR1, His tag detection, PE MFI, non-linear fit
Rule: EC50 below 0.01 µM gives Criterion met. Equal to or above 0.01 µM gives Criterion not met.

See these solved cases before continuing.
VHH 2HFO19 (family 1) (VHH, also called Nb19) VHH: QVQLQESGGGLVQPGGSLRVSCAASGFPFSTVYMSWVRQAPGKGLEWVSGINNDGGVIDYADSVKGRFTISRDNAKNTLYLQLNSLKPEDTALYFCARGRSFVATLSSSLRGQGTQVTVSS: Criterion met
VHH 2HFO42 (family 3) (VHH, also called 2HF042; Nb42) VHH: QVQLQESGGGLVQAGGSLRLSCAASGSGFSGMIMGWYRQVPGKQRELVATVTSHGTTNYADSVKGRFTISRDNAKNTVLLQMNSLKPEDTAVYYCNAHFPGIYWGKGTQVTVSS: Criterion not met
VHH 2MFR7 (family 1) (VHH, also called 2MFRO7) VHH: QVQLQESGGGLVQPGGSLRLSCAASGFPFSTYYMSWVRQAPGKGLEWVSGINSNGGVIDYADSVKGRFTISRDNAKNTLYLQLNSLKPEDTALYFCARGRAFVATMPSSLRGQGTQVTVSS: Criterion not met

Next item in the queue.
**Query** In the record for VHH 3HFO26 (family 1) (VHH) VHH: QVQLQESGGGLVQPGGSLRITCVASGFPFSTYYMSWVRQAPGKGLEWVSGINSNGGVIDYADSVKGRFTISRDNAKNTLYLQLNSLKPEDTALYFCARGRAFVATMPSSLRGQGTQVTVSS , is EC50 less than 0.01 µM?
**Result** Criterion met
